ASSAY NOTES: Oral bioavailability in Beagle dog by LC-MS/MS analysis
Format: ADME, organism-based, Canis lupus familiaris
RECORDED CONDITIONS: in vivo
ASSAY READOUT: bioavailability (%)

>>> assay_value("COCc1cnc(N2CCC([C@H]3C[C@H]3CCOc3cc(F)c(CC(=O)N4CCC4)c(F)c3)CC2)nc1")
55

====

ASSAY NOTES: Volume of distribution in rhesus monkey at 0.5 mg/kg, iv by LC-MS/MS analysis
Type: ADME, organism-based, Macaca mulatta
RECORDED CONDITIONS: in vivo
ASSAY READOUT: Vd (L/kg)

>>> assay_value("COCc1cnc(N2CCC([C@H]3C[C@H]3CCOc3cc(F)c(CC(=O)N4CCC4)c(F)c3)CC2)nc1")
3.5

====

ASSAY NOTES: Plasma clearance in Wistar Han rat at 0.5 mg/kg, iv by LC-MS/MS analysis
Type: ADME, organism-based
ASSAY READOUT: clearance (mL/min/kg)

>>> assay_value("COCc1cnc(N2CCC([C@H]3C[C@H]3CCOc3cc(F)c(CC(=O)N4CCC4)c(F)c3)CC2)nc1")
29

====

Recorded solubility kinetic values for a group of molecules are listed next.
ASSAY NOTES: Kinetic solubility in fasted state simulated intestinal fluid at pH 6.5
Type: physicochemical
RECORDED CONDITIONS: read-out: Kinetic_solubility
ASSAY READOUT: solubility kinetic (µM)

>>> assay_value("CC(C)c1noc(N2CCC([C@H]3C[C@H]3CCOc3ccc(CC(=O)N4CCC4)c(F)c3)CC2)n1")
126
>>> assay_value("COCc1cnc(N2CCC([C@H]3C[C@H]3CCOc3ccc(CC(=O)N4CCC4)c(F)c3)CC2)nc1")
152
>>> assay_value("O=C(Cc1ccc(OCC[C@@H]2C[C@@H]2C2CCN(c3ncc(Cl)cn3)CC2)cc1F)N1CCCCC1")
124
>>> assay_value("COCc1cnc(N2CCC([C@H]3C[C@H]3CCOc3cc(F)c(CC(=O)N4CCC4)c(F)c3)CC2)nc1")
139
>>> assay_value("O=C(Cc1ccc(OCC[C@@H]2C[C@@H]2C2CCN(c3ncc(Cl)cn3)CC2)cc1F)N1CC(O)C1")
144
>>> assay_value("CC1(OC(=O)N2CCC([C@H]3C[C@H]3CCOc3ccc(CC(=O)N4CCC4)c(F)c3)CC2)CC1")
138
>>> assay_value("O=C(Cc1ccc(OCC[C@@H]2C[C@@H]2C2CCN(c3ncc(Cl)cn3)CC2)cc1)N1CCC1")
97
>>> assay_value("O=C(Cc1ccc(OCC[C@@H]2C[C@@H]2C2CCN(c3ncc(Cl)cn3)CC2)cc1F)N1CCC1")
137

====

ASSAY NOTES: Plasma clearance in rhesus monkey at 0.5 mg/kg, iv by LC-MS/MS analysis
Type: ADME, organism-based, Macaca mulatta
ASSAY READOUT: clearance (mL/min/kg)

>>> assay_value("COCc1cnc(N2CCC([C@H]3C[C@H]3CCOc3cc(F)c(CC(=O)N4CCC4)c(F)c3)CC2)nc1")
14

====

ASSAY NOTES: Drug uptake in C57BL/6 Tac mouse blood at 0.1 mg/kg, po via gavage measured at 90 mins post dose
Assay type: ADME, organism-based
RECORDED CONDITIONS: whole blood, read-out: Drug uptake
ASSAY READOUT: concentration at 1.5 h

>>> assay_value("COCc1cnc(N2CCC([C@H]3C[C@H]3CCOc3cc(F)c(CC(=O)N4CCC4)c(F)c3)CC2)nc1")
"0.01 µM"

====

ASSAY NOTES: Fraction unbound in dog plasma
Assay type: ADME, cell-free, Canis lupus familiaris
ASSAY READOUT: fraction unbound

>>> assay_value("COCc1cnc(N2CCC([C@H]3C[C@H]3CCOc3cc(F)c(CC(=O)N4CCC4)c(F)c3)CC2)nc1")
0.055

====

ASSAY NOTES: Intrinsic clearance in dog liver microsomes
Assay type: ADME, Canis lupus familiaris, microsome
RECORDED CONDITIONS: read-out: CLH
ASSAY READOUT: CLint scaled (mL/min/kg)

>>> assay_value("COCc1cnc(N2CCC([C@H]3C[C@H]3CCOc3cc(F)c(CC(=O)N4CCC4)c(F)c3)CC2)nc1")
39

====

ASSAY NOTES: Fraction unbound in rat plasma
Format: ADME, cell-free
ASSAY READOUT: fraction unbound

>>> assay_value("COCc1cnc(N2CCC([C@H]3C[C@H]3CCOc3cc(F)c(CC(=O)N4CCC4)c(F)c3)CC2)nc1")
0.067

====

ASSAY NOTES: Plasma clearance in Beagle dog at 0.5 mg/kg, iv by LC-MS/MS analysis
Assay type: ADME, organism-based, Canis lupus familiaris
ASSAY READOUT: clearance

>>> assay_value("COCc1cnc(N2CCC([C@H]3C[C@H]3CCOc3cc(F)c(CC(=O)N4CCC4)c(F)c3)CC2)nc1")
"2 mL/min/kg"

====

Recorded solubility kinetic values for a group of compounds are listed next.
ASSAY NOTES: Kinetic solubility in fasted state simulated intestinal fluid at pH 6.5
Type: physicochemical
RECORDED CONDITIONS: read-out: Kinetic_solubility
ASSAY READOUT: solubility kinetic (µM)

>>> assay_value("O=C(Cc1ccc(OCC[C@@H]2C[C@@H]2C2CCN(c3ncc(Cl)cn3)CC2)cc1)NC1CC1")
22
>>> assay_value("O=C(Cc1ccc(OCC[C@@H]2C[C@@H]2C2CCN(c3ncc(Cl)cn3)CC2)c(F)c1)N1CCC1")
65
>>> assay_value("CCc1cnc(N2CCC([C@H]3C[C@H]3CCOc3ccc(CC(=O)N4CCC4)c(F)c3)CC2)nc1")
140
>>> assay_value("O=C(Cc1ccc(OCC[C@@H]2C[C@@H]2C2CCN(c3ncc(Cl)cn3)CC2)nc1)N1CCC1")
83

====

ASSAY NOTES: Solubility in fasted state simulated intestinal fluid using crystalline compound by equilibration method
Assay type: physicochemical
ASSAY READOUT: solubility thermodynamic (µg/mL)

>>> assay_value("COCc1cnc(N2CCC([C@H]3C[C@H]3CCOc3cc(F)c(CC(=O)N4CCC4)c(F)c3)CC2)nc1")
51

====

ASSAY NOTES: Half life in rhesus monkey at 0.5 mg/kg, iv by LC-MS/MS analysis
Type: ADME, organism-based, Macaca mulatta
RECORDED CONDITIONS: in vivo
ASSAY READOUT: half-life (h)

>>> assay_value("COCc1cnc(N2CCC([C@H]3C[C@H]3CCOc3cc(F)c(CC(=O)N4CCC4)c(F)c3)CC2)nc1")
7.6

====

ASSAY NOTES: Volume of distribution in Wistar Han rat at 0.5 mg/kg, iv by LC-MS/MS analysis
Type: ADME, organism-based
RECORDED CONDITIONS: in vivo
ASSAY READOUT: Vd (L/kg)

>>> assay_value("COCc1cnc(N2CCC([C@H]3C[C@H]3CCOc3cc(F)c(CC(=O)N4CCC4)c(F)c3)CC2)nc1")
4.8

====

TARGET UNDER TEST: Voltage-gated inwardly rectifying potassium channel KCNH2 (Homo sapiens, UniProt Q12809)
Sequence (Q12809 whole entry): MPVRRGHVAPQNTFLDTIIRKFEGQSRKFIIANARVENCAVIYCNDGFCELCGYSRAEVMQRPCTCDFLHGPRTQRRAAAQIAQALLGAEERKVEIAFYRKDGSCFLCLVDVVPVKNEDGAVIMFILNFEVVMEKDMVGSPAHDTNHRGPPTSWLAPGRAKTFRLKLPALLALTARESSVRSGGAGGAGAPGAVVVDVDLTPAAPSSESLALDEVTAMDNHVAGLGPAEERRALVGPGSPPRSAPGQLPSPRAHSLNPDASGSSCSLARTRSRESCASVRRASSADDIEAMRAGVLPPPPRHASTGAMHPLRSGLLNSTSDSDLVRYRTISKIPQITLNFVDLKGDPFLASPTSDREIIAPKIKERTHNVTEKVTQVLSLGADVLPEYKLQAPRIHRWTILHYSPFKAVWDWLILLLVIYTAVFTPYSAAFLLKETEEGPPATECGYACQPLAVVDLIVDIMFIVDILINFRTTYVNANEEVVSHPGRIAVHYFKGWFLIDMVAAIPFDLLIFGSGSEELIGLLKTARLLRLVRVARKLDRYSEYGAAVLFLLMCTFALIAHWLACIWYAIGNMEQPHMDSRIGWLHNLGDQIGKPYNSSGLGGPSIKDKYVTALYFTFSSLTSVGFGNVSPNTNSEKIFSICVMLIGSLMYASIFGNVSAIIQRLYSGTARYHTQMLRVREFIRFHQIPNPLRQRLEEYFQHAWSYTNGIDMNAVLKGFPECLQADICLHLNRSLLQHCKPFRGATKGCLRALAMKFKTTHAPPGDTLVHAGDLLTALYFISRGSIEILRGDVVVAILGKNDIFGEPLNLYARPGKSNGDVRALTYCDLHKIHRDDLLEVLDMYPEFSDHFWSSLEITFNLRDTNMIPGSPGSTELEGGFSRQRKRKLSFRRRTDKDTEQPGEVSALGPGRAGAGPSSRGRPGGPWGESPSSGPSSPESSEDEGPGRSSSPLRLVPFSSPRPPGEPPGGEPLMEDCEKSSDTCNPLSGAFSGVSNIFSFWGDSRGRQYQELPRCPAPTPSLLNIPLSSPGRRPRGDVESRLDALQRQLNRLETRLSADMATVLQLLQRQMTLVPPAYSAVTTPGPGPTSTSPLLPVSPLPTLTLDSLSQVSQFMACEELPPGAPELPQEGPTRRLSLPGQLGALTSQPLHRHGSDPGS
pIC50: −log10 of the molar value.
ASSAY READOUT: pIC50

>>> assay_value("CC1(OC(=O)N2CCC([C@H]3C[C@H]3CCOc3ccc(CC(=O)N4CCC4)c(F)c3)CC2)CC1")
4.64
>>> assay_value("COCc1cnc(N2CCC([C@H]3C[C@H]3CCOc3ccc(CC(=O)N4CCC4)c(F)c3)CC2)nc1")
4.72
>>> assay_value("CCc1cnc(N2CCC([C@H]3C[C@H]3CCOc3ccc(CC(=O)N4CCC4)c(F)c3)CC2)nc1")
5.49
>>> assay_value("O=C(Cc1ccc(OCC[C@@H]2C[C@@H]2C2CCN(c3ncc(Cl)cn3)CC2)cc1F)N1CCCCC1")
5.48
>>> assay_value("CC(C)c1noc(N2CCC([C@H]3C[C@H]3CCOc3ccc(CC(=O)N4CCC4)c(F)c3)CC2)n1")
5.15
>>> assay_value("O=C(Cc1ccc(OCC[C@@H]2C[C@@H]2C2CCN(c3ncc(Cl)cn3)CC2)cc1)N1CCC1")
5.13
>>> assay_value("O=C(Cc1ccc(OCC[C@@H]2C[C@@H]2C2CCN(c3ncc(Cl)cn3)CC2)cc1F)N1CCC1")
5.48
>>> assay_value("O=C(Cc1ccc(OCC[C@@H]2C[C@@H]2C2CCN(c3ncc(Cl)cn3)CC2)nc1)N1CCC1")
5.68
>>> assay_value("COCc1cnc(N2CCC([C@H]3C[C@H]3CCOc3cc(F)c(CC(=O)N4CCC4)c(F)c3)CC2)nc1")
5.04

====

ASSAY NOTES: Intrinsic clearance in human liver microsomes
Type: ADME, microsome
RECORDED CONDITIONS: read-out: CLH
ASSAY READOUT: CLint scaled (mL/min/kg)

>>> assay_value("COCc1cnc(N2CCC([C@H]3C[C@H]3CCOc3cc(F)c(CC(=O)N4CCC4)c(F)c3)CC2)nc1")
39
